Assay: cAMP Responsive Elements (CRE) small molecule agonists, cell-based qHTS assay: qHTS cell viability counter screen (AID 2060914);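 also: viability read after 3 h of compound exposure; nearly all actives have a fitted effect of over 50% in size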
Conditions: CRE-bla HEK293T viability, CellTiter-Glo luminescence, 5 h; series mostly up to 92.4 µM
Records with an inconclusive call do not appear. The source made the active and inactive calls. Calls follow the shape of the dose curve; as a rule, active = well fitted cell-killing curve with a large enough effect in the repeat runs; inconclusive = weak or mixed curves, or effect the other way; inactive = flat fitted curve, though single readings scatter.
Mark one answer only. Choices: true (active), false (inactive)

Data request: How was CC(COc1ccc(Oc2ccccc2)cc1)Oc1ccccn1 (stereo not drawn) classified in this test?
Data returned: false

Data request: Test call, this compound: CCOP(=S)(OCC)Oc1nc(Cl)n(C(C)C)n1
Data returned: false

Data request: # outcome recorded in this test, key = O=C(O)C(Cl)(Cl)Br
Data returned: false

Data request: Would you mind telling me which call this test gave O=[N+]([O-])O[C@H]1CO[C@H]2[C@@H]1OC[C@H]2O[N+](=O)[O-] ?
Data returned: false

Data request: Which result was noted for this compound in the test: C=CCc1ccc(OC(=O)Cc2ccccc2)c(OC)c1
Data returned: false

Data request: Call for entry CCCCCCI :
Data returned: false

Data request: Assay outcome for NP(N)(=O)NC(=O)c1ccc(F)cc1 : what was it?
Data returned: false

Data request: In this assay, the call recorded for CC1=C2C[C@H]3[C@@H](CC=C4C[C@@H](O)CC[C@@]43C)[C@@H]2CC[C@]12O[C@@H]1C[C@H](C)CN[C@H]1[C@H]2C was what?
Data returned: false

Data request: Write down the call the test reported for this compound. Item: CC(C)(c1ccc(O)c(-c2ccccc2)c1)c1ccc(O)c(-c2ccccc2)c1
Data returned: true

Data request: I'd appreciate the recorded outcome for CCOP(=O)(CN(CCO)CCO)OCC from this test.
Data returned: false

Data request: Look up the recorded call for CCOCn1c(-c2ccc(Cl)cc2)c(C#N)c(Br)c1C(F)(F)F in this test.
Data returned: false

Data request: Test call for this compound, please: CN(C)[C@@H]1C(=O)C(C(N)=O)=C(O)[C@@]2(O)C(=O)C3=C(O)c4c(O)cccc4[C@@](C)(O)[C@H]3C[C@@H]12
Data returned: false

Data request: Field: outcome | Entry: CCCCCCCCCCCCCCCl
Data returned: false

Data request: Call for entry O=c1[nH]c2cc(Cl)ccc2n1C1CCNCC1 :
Data returned: false

Data request: Test call, this compound: CN(C)CCc1c[nH]c2cccc(O)c12
Data returned: false

Data request: What classification did COP(=O)(CCC(=O)NCO)OC end up with in this test?
Data returned: false

Data request: Which outcome did this test record for the compound COP(=O)(OC)Oc1ccc([N+](=O)[O-])cc1 ?
Data returned: false

Data request: // outcome(item) with item = Nc1ccc([N+](=O)[O-])cc1[N+](=O)[O-]
Data returned: false

Data request: Give the logged outcome of this assay for the following compound: CC(C)Nc1ccc(Nc2ccccc2)cc1
Data returned: false

Data request: Short answer needed: outcome of this test for CCOP(OCC)OCC ?
Data returned: false

Data request: State the result this test recorded for CCCCOC(=O)c1ccccc1N .
Data returned: false

Data request: Recorded test outcome, item N#CNC#N
Data returned: false

Data request: Hi team, can someone confirm the assay call for Nc1ccc2ccccc2c1 ?
Data returned: false

Data request: Outcome? COc1ccc(Cc2nccc3cc(OC)c(OC)cc23)cc1OC
Data returned: false

Data request: I'd appreciate the recorded outcome for ClC(Cl)(Cl)C(Cl)(Cl)Cl from this test.
Data returned: false

Data request: Returns: the outcome recorded for O=[N+]([O-])C(Br)(CO)CO in this assay.
Data returned: false

Data request: Please indicate how the test categorized FC(Cl)(Cl)Cl .
Data returned: false

Data request: What did the test return for COC(C)(C)CCC[C@H](C)C/C=C/C(C)=C/C(=O)OC(C)C ?
Data returned: false

Data request: Which result was noted for this compound in the test: CCOC(=O)C(SP(=S)(OC)OC)c1ccccc1 (stereo not drawn)
Data returned: false

Data request: Returns: the outcome recorded for CCC(C)c1cc([N+](=O)[O-])cc([N+](=O)[O-])c1OC(=O)C=C(C)C (stereo not drawn) in this assay.
Data returned: false

Data request: GET /call?item= C=CC(=O)OCCN(C)C returns the recorded outcome of this test.
Data returned: false

Data request: Hello, I am checking results. What call was entered for Cc1ccc(OP(=O)(Oc2ccc(C)cc2)Oc2ccc(C)cc2)cc1 ?
Data returned: false

Data request: Record request — test call for O=[N+]([O-])CCO
Data returned: false

Data request: What did this assay record as the result for CC(Oc1cc(Cl)c(Cl)cc1Cl)C(=O)O (stereo not drawn) ?
Data returned: false

Data request: What did the test return for CCCCS(=O)(=O)Cl ?
Data returned: false

Data request: What did this assay record as the result for CCCC[P+](CC)(CCCC)CCCC (tested in a mixture with another compound) ?
Data returned: false

Data request: Recorded call for Nc1ccc(-c2ccc(N)c(Cl)c2)cc1Cl ?
Data returned: false

Data request: # outcome recorded in this test, key = CCCCCCCCOC(=O)c1ccccc1C(=O)OCCCCCCCC
Data returned: false

Data request: // param item: CCNc1nc(Cl)nc(NCC)n1 ; yields the recorded call
Data returned: false

Data request: Which outcome was assigned to O=C(Nc1ccccc1)N(Cc1ccc(Cl)cc1)C1CCCC1 in this test?
Data returned: false

Data request: In this assay, the call recorded for CN(C)c1ccc(N(C)C)cc1 was what?
Data returned: false

Data request: Hi, do you know how O=[N+]([O-])c1ccc(Cl)cc1 came out in this test?
Data returned: false

Data request: # outcome recorded in this test, key = CC(C)c1ccc(O)cc1
Data returned: false

Data request: Would you mind telling me which call this test gave COP(=O)(O)OC ?
Data returned: false

Data request: Please let me know the test result on file for O=S(=O)(O)C(F)(F)C(F)(F)C(F)(F)C(F)(F)C(F)(F)C(F)(F)C(F)(F)C(F)(F)F .
Data returned: false

Data request: Look up the recorded call for NNC(=O)c1ccccc1 in this test.
Data returned: false

Data request: Hello, I am checking results. What call was entered for C[C@]12CCC(=O)C[C@@H]1CC[C@@H]1[C@@H]2CC[C@]2(C)[C@@H](O)CC[C@@H]12 ?
Data returned: false

Data request: What call does the record list for N#CCCO ?
Data returned: false

Data request: Record lookup: outcome of this test for COC(=O)c1cc(Oc2ccc(Cl)cc2Cl)ccc1[N+](=O)[O-] ?
Data returned: false

Data request: I would be grateful if you could indicate the recorded call for CCCN(CCOc1c(Cl)cc(Cl)cc1Cl)C(=O)n1ccnc1 .
Data returned: false

Data request: Recorded call for CC[C@@H](CO)NC(=O)[C@@H]1C=C2c3cccc4[nH]cc(c34)C[C@H]2N(C)C1 ?
Data returned: false

Data request: Fill in: this test's call for Cc1cccc(C)c1N is ___
Data returned: false

Data request: Any idea what this test logged for O=[N+]([O-])C(Br)Br ?
Data returned: false

The reported numbers originate from PubChem BioAssay (Tox21).
